# Tested on: HeLa Kyoto;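 note: HeLa Kyoto cells arrested at G1/S by double thymidine block, proteins quantified by TMT10plex mass spectrometry in mild NP-40 versus SDS extracts, three biological replicates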
# assay-notes: solubility in G1/S (NP-40 vs SDS abundance) (log2 ratio); higher = more soluble
# particulars: cell cycle stage: G1/S
Entries annotated with measured solubility in G1/S (log2)
Please give the numeric answer without any surrounding text.

As a guide, the following entries are already answered.
{"columns": ["sequence-input", "measured-number"],
 "data": [
  ["MAKVSELYDVTWEEMRDKMRKWREENSRNSEQIVEVGEELINEYASKLGDDIWIIYEQVMIAALDYGRDDLALFCLQELRRQFPGSHRVKRLTGMRFEAMERYDDAIQLYDRILQEDPTNTAARKRKIAIRKAQGKNVEAIRELNEYLEQFVGDQEAWHELAELYINEHDYAKAAFCLEELMMTNPHNHLYCQQYAEVKYTQGGLENLELSRKYFAQALKLNNRNMRALFGLYMSASHIASNPKASAKTKKDNMKYASWAASQINRAYQFAGRSKKETKYSLKAVEDMLETLQITQS [EMC2]", 0.188],
  ["MLLWPLRGWAARALRCFGPGSRGSPASGPGPRRVQRRAWPPDKEQEKEKKSVICVEGNIASGKTTCLEFFSNATDVEVLTEPVSKWRNVRGHNPLGLMYHDASRWGLTLQTYVQLTMLDRHTRPQVSSVRLMERSIHSARYIFVENLYRSGKMPEVDYVVLSEWFDWILRNMDVSVDLIVYLRTNPETCYQRLKKRCREEEKVIPLEYLEAIHHLHEEWLIKGSLFPMAAPVLVIEADHHMERMLELFEQNRDRILTPENRKHCP [TK2]", -0.273]
]}

Please turn your attention to the following entry.
In: Which solubility in G1/S (log2) is listed for MVSWMICRLVVLVFGMLCPAYASYKAVKTKNIREYVRWMMYWIVFALFMAAEIVTDIFISWFPFYYEIKMAFVLWLLSPYTKGASLLYRKFVHPSLSRHEKEIDAYIVQAKERSYETVLSFGKRGLNIAASAAVQAATKSQGALAGRLRSFSMQDLRSISDAPAPAYHDPLYLEDQVSHRRPPIGYRAGGLQDSDTEDECWSDTEAVPRAPARPREKPLIRSQSLRVVKRKPPVREGTSRSLKVRTRKKTVPSDVDS [REEP4] ?
Out: 0.0372
